Assay: soluble on expression in E. coli; label from the status in PepcDB or PDB records
Endpoint: soluble on expression in E. coli

Below, 6 sequences whose answers are already recorded.
# Sequence Chain, Value Measured
records = [
    ("KPYVSEDSRVYSPQEPTLVVKSVDNSVSIDVTSKYNVNLYRNGELIQKNVIAQSYSDTPTGFACYLAESINDKGFRSNPSQPVCVGEEIRIKLDGEYQPLKDNVSVVTVSKDSGIVKGAESFTAPVTGTYQFDAWYNNNLGQLNTGITNTVKLLEVLDDAGKVVGQGYLQMGHIGENQGMRYSTPIEVALEQGKTYQFALKDHFNMSYLTSNETYIYAGGIEGEKNEAQIADIRITPLM", "not soluble"),
    ("MGSDKIHHHHHHMKQDTIHINGLSIGYHSKSSTKLVAKGIHSTIYSGELTCLLGANGVGKSTLLRTLSAFQPKLDGEILVLGKDIDTYSDKELSTTIGVVLTDKCEIRNMLVRELVGMGRSPYTGFWGKLSKDDKRIVEESIALVRIEELASRMVHTLSDGERQKVMIAKALAQETPVIYLDEPTAFLDFPSKVEIMQLLHHLTRKTNKTIFMSTHDLELALQISDKIWLMDKANGISTGTPEDLALSGHLSNFFARKGIVFDKDTGLFRIDNQFSRQIRLVGHGQKYAMVRKGLQRNGILANREVESNIWIETGDLKTTHFIIHETSGGTYITQTIEELLAYFDTEKS", "not soluble"),
    ("MKKVRDPLEVTVVGQNIIVADDNYKWLQILPEKKRYSITVMFDNKGNPLEYYFDINIKNITQKGNARTVDLCLDVLALPSGEYELVDEDDLMFALESEQIT", "not soluble"),
    ("MAVCGLGSRLGLGSRLGLRGCFGAARLLYPRFQSRGPQGVEDGDRPQPSSKTPRIPKIYTKTGDKGFSSTFTGERRPKDDQVFEAVGTTDELSSAIGFALELVTEKGHTFAEELQKIQCTLQDVGSALATPCSSAREAHLKYTTFKAGPILELEQWIDKYTSQLPPLTAFILPSGGKISSALHFCRAVCRRAERRVVPLVQMGETDANVAKFLNRLSDYLFTLARYAAMKEGNQEKIYMKNDPSAESEGL", "not soluble"),
    ("MLMPKRTKYRKQMKGRNRGKAHRGNSIAFGDIAIKAIEHGRIDSRQIESARVAMTRHIKRAGKVWIRVFPDKPLTAKPLETRMGKGKGSVEKWVMNIKPGRIVYEMLGIEEGLAREALALAQSKLPFKTKIVTCESENEIYLEHHHHHH", "soluble"),
    ("MSAITITEAAQAYLAELLEKQSTPGIGIRIFITQPGTQYAETCIAYCKPGEEKVEDTAIALKDFTAWIDAVSEPFLEDAVVDYATDRMGGQLTIKAPNAKVPMVNEDSPITERINYYLQTEINPGLASHGGQVSLVDVVEDNIAVLRFGGGCQGCGMVDMTLKDGVEKTLIERIPELKGVRDVTDHSNKENAYY", "not soluble"),
]

I need soluble on expression in E. coli for every entry listed below, if you could help.
1. DIPFYEQVKASAGHGFLCECKNVTYISLPKALFKYFNVKDLLAITAHGDSMEPVLNDDALLVIDSSKKQIRDGSMYVIRQGDLIRVKLISLDNNGLKLKSYNQSYHDEIYEDYQDVEILGKVIWYSSLCL
2. GPGSMASHAEGRLLRRSVPYVESWIAELTPKPVAPAAGAAPAPKGKAKGGTASTGTENATPMSRCCFAVGKVLEVSRHPESEKLYIEKIDLGAELNMLSNNEPRTILSGLQEFVKEEDFVNRLVLVIANLEPRKIGGIPSAGMVLCASTGEDPHDPASAGQGERKVVLLDIPEGTAVGERVVFEGHDMPYEPVLKKKLAKNFEEVMKDVRSSADGEVCWQGKPFQTSAGVIKASLCNARIS
3. TLFDGIARAVCRAGCLPRKELYEAWEVARRVRRRFRGGRVVDLACGHGLLAWIMLLLDDSSPGALAVDRRLPPSAAGLAAVLETEWPRLRGRVRLLEADLAEVELGRDDLVVSAHACGGLTDLVLARAVAAGARVAVLPCCHDLAGADLAGLQGWLDGPLAMDVLRATGLRERGYRVFTQQ
4. MGSDKIHHHHHHMAKTIKLILSDIDGTILDNNHQVDAHLRDTITELKKESIPFVLASARSPHGMFPIAQELNLGANPIACYNGALIVEGNKEHYQTLIEHGLSKADVKKIVALIKKQFPHISINFYSGGDWIVEEIDQWVQIEADITKESPDIRNFDTLLTDDAIPIHKLLLIANAQAIQEFFTYLKRVNFEDASFYLSKDNYLEVTSQSVSKENALLEIAKYYDISLSQTMAIGDNYNDIPMLKLAGLGVAMANAPQAVKNEADIETVSNNDNGVSKVIEDYVLI

Output:
not soluble
soluble
not soluble
not soluble
